Entry source: patent US9718804B2

Each record here notes measured pIC50.
Biological target: GSK3β (Homo sapiens)
Sequence (P49841 whole entry, species assumed): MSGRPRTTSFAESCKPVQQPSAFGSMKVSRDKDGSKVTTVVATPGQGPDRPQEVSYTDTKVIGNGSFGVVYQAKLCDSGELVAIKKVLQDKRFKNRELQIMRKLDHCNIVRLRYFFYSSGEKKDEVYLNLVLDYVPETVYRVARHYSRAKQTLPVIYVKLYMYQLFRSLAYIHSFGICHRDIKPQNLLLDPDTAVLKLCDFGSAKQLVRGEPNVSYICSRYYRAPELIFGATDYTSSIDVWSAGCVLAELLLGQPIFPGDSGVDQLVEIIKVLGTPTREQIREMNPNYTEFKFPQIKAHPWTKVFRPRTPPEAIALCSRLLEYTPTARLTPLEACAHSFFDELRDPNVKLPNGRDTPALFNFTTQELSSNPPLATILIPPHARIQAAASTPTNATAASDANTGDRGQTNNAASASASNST
Assay: GSK3β kinase assay (Caliper LabChip, fluoresceinated peptide substrate)
Type: biochemical
pIC50: −log10 of the molar value.
measure: pIC50

[
  {
    "record smiles": "O=C(Nc1cnccc1-c1ccccc1)c1ccnc(Nc2cc(C(F)(F)F)ccn2)c1",
    "measure": "pIC50",
    "recorded measurement": 8.05
  },
  {
    "record smiles": "Cc1ccnc(Nc2cc(C(=O)Nc3cncc(-c4ccccc4F)c3)ccn2)c1",
    "measure": "pIC50",
    "recorded measurement": 8.05
  },
  {
    "record smiles": "Cc1ccncc1NC(=O)c1ccnc(Nc2ccc(C#N)cn2)c1",
    "measure": "pIC50",
    "recorded measurement": 7.85
  },
  {
    "record smiles": "CC1(COc2cncc(NC(=O)c3ccnc(Nc4cccc(C(F)(F)F)n4)c3)c2)CC1",
    "measure": "pIC50",
    "recorded measurement": 7.92
  },
  {
    "record smiles": "CC(C)S(=O)(=O)c1ccncc1NC(=O)c1ccnc(Nc2ccc(C(F)(F)F)cn2)c1",
    "measure": "pIC50",
    "recorded measurement": 8.92
  },
  {
    "record smiles": "O=C(Nc1cnccc1C1CCOCC1)c1ccnc(Nc2ccc(C(F)(F)F)cn2)c1",
    "measure": "pIC50",
    "recorded measurement": 7.80
  },
  {
    "record smiles": "O=C(Nc1cncc(OCC(F)(F)F)c1)c1ccnc(Nc2cccc(C(F)(F)F)n2)c1",
    "measure": "pIC50",
    "recorded measurement": 8.13
  },
  {
    "record smiles": "CC(C)CS(=O)(=O)c1ccncc1NC(=O)c1ccnc(Nc2ccc(C(F)(F)F)cn2)c1",
    "measure": "pIC50",
    "recorded measurement": 9.29
  },
  {
    "record smiles": "O=C(Nc1cnc(Cl)cc1C1(O)CCOCC1)c1ccnc(Nc2ccc(Cl)cn2)c1",
    "measure": "pIC50",
    "recorded measurement": 8.59
  },
  {
    "record smiles": "O=C(Nc1cncc(-c2ccccc2F)c1)c1ccnc(Nc2ccc(S(=O)(=O)N3CCCCC3)cn2)c1",
    "measure": "pIC50",
    "recorded measurement": 8.41
  },
  {
    "record smiles": "Cc1ccc(Nc2cc(C(=O)Nc3cncc(-c4ccccc4F)c3)ccn2)nc1C",
    "measure": "pIC50",
    "recorded measurement": 8.06
  },
  {
    "record smiles": "CCC1(c2cc(Cl)ncc2NC(=O)c2ccnc(Nc3ccccn3)c2)OCCO1",
    "measure": "pIC50",
    "recorded measurement": 8.85
  },
  {
    "record smiles": "O=C(Nc1cncc(-c2ccccc2F)c1)c1ccnc(Nc2ccc(F)cn2)c1",
    "measure": "pIC50",
    "recorded measurement": 8.21
  },
  {
    "record smiles": "N#Cc1ccc(-c2cncc(NC(=O)c3ccnc(Nc4cccc(C#N)n4)c3)c2)cc1",
    "measure": "pIC50",
    "recorded measurement": 8.46
  },
  {
    "record smiles": "CCC1(c2cc(Cl)ncc2NC(=O)c2ccnc(Nc3ccc(C)cn3)c2)OCCO1",
    "measure": "pIC50",
    "recorded measurement": 8.74
  }
]
